I'd be grateful if you could share measured fold induction at 50 µM for these entries.
# System: K. pneumoniae
# Experiment: AK assay 384-well format, Prestwick library screening
# Assay type: cell-based, Klebsiella pneumoniae
# Assay setup: Klebsiella pneumoniae, 3 h; 50 μM final drug concentration; planktonic; cutoff for positive-scoring molecules 3-fold increase; read-out: AK-based Prestwick Library Screening Results, K. pneumoniae (fold increase in extracellular AK activity)
Counter-ions that a name gives are not always drawn.
Give bare numbers.

Guide cases for fold induction at 50 µM, answers given:
CCCCCN(CCCCC)C(=O)C(CCC(=O)O)NC(=O)c1ccc(Cl)c(Cl)c1 (stereo not shown) [Lorglumide sodium salt]: 0.7
Cn1nnnc1SCC1=C(C(=O)O)N2C(=O)[C@@H](NC(=O)[C@H](O)c3ccccc3)[C@H]2SC1 [Cefamandole sodium salt]: 2.3
COc1cc(NS(=O)(=O)c2ccc(N)cc2)nc(OC)n1 [Sulfadimethoxine]: 0.5

Below: the item to evaluate.
Measured fold induction at 50 µM (K. pneumoniae), entry O=C(O)/C=C/c1ccc(O)c(O)c1 [Caffeic acid] : 0.8

====

# System: K. pneumoniae
# Experiment: AK assay 384-well format, Prestwick library screening
# Assay type: cell-based, Klebsiella pneumoniae
# Assay setup: Klebsiella pneumoniae, 3 h, 50 μM final drug concentration; planktonic; […]; read-out: AK-based Prestwick Library Screening Results, K. pneumoniae (fold increase in extracellular AK activity)
Readout name: fold induction at 50 µM
Answers are plain numbers.

C[C@@H]1CC[C@@]2(NC1)O[C@H]1C[C@H]3[C@@H]4CC=C5C[C@@H](O)CC[C@]5(C)[C@H]4CC[C@]3(C)[C@H]1[C@@H]2C [Solasodine]: 0.7

Would you mind giving fold induction at 50 µM for every compound in the list below?
1. CN(C)C(=O)Oc1cccc([N+](C)(C)C)c1 [Neostigmine bromide]
2. CCCCOC(=O)c1ccc(O)cc1 [Butylparaben]
3. CCN1C[C@]2(C)CC[C@H](OC)[C@@]34C1[C@]1(OCO[C@@]15C[C@H](OC)[C@H]1C[C@]3(O)[C@@H]5[C@H]1OC)[C@@H](OC(C)=O)[C@H]24 [Deltaline]

1: 1; 2: 0.4; 3: 0.7

====

I'd be grateful if you could share measured fold induction at 50 µM for these entries.
# Tested on: A. baumannii strain 98-37-09
# Experiment: AK assay 384-well format, Prestwick library screening
# Format: cell-based, Acinetobacter baumannii
# Assay setup: Acinetobacter baumannii, 983709, 3 h; 50 μM final drug concentration; cutoff for positive-scoring molecules 3-fold increase; read-out: AK-based Prestwick Library Screening Results, A. baumannii (fold increase in extracellular AK activity)
Counter-ions that a name gives are not always drawn.
Answers are plain numbers.

Guide cases for fold induction at 50 µM, answers given:
CNC(=C[N+](=O)[O-])NCCSCc1csc(CN(C)C)n1: 1
CCOc1cc(CC(=O)N[C@@H](CC(C)C)c2ccccc2N2CCCCC2)ccc1C(=O)O [Repaglinide]: 0.4
Cc1cc(C(=O)NNCc2ccccc2)no1: 1.1
O=C(CCCCC(=O)Nc1c(I)cc(I)c(C(=O)O)c1I)Nc1c(I)cc(I)c(C(=O)O)c1I [Iodipamide]: 1.2
CC(C)(C)NC[C@H](O)COc1ccccc1C1CCCC1 [Penbutolol sulfate]: 0.4

Would you mind giving fold induction at 50 µM for every compound in the list below?
1. CC[C@H]1OC(=O)[C@H](C)[C@@H](O[C@H]2C[C@@](C)(OC)[C@@H](O)[C@H](C)O2)[C@H](C)[C@@H](O[C@@H]2O[C@H](C)C[C@H](N(C)C)[C@H]2O)[C@](C)(O)C[C@@H](C)/C(=N\OCOCCOC)[C@H](C)[C@@H](O)[C@]1(C)O
2. CCC(=O)OCC(=O)[C@@]1(OC(=O)CC)[C@@H](C)C[C@H]2[C@@H]3CCC4=CC(=O)C=C[C@]4(C)[C@@]3(Cl)[C@@H](O)C[C@@]21C [Beclomethasone dipropionate]
3. C[N+](C)(C)CCOC(N)=O

1. 1
2. 1
3. 1.3

Would you mind giving fold induction at 50 µM for every compound in the list below?
1. CC(=O)OCC1=C(C(=O)O)N2C(=O)[C@@H](NC(=O)Cc3cccs3)[C@H]2SC1 [Cephalothin sodium salt]
2. COc1cc2ccc(=O)oc2cc1O
3. CC(C)NCC(O)COc1cccc2ccccc12 (centres unmarked) [Propranolol hydrochloride]

[1.1, 0.4, 1.2]

====

# Test system: A. baumannii strain 98-37-09
# Experiment: AK assay 384-well format, Prestwick library screening
# Assay type: cell-based, Acinetobacter baumannii
# Assay setup: Acinetobacter baumannii, 983709, 3 h; planktonic A. baumannii; 50 μM final drug concentration; 384-well; cutoff for positive-scoring molecules 3-fold increase; read-out: AK-based Prestwick Library Screening Results: A. baumannii (increase in extracellular AK activity)
Counter-ions that a name gives are not always drawn.
Readout name: fold induction at 50 µM
Answers are plain numbers.

CCN(CC)CC#CCOC(=O)C(O)(c1ccccc1)C1CCCCC1 (centres unmarked) [Oxybutynin chloride]: 1.1
CC1COc2c(N3CCN(C)CC3)c(F)cc3c(=O)c(C(=O)O)cn1c23 (centres unmarked): 3.7
Cc1cc(C(C)(C)C)c(O)c(C)c1CC1=NCCN1 [Oxymetazoline hydrochloride]: 1.4
O=c1[nH]cnc2c1ncn2[C@H]1CC[C@@H](CO)O1: 1.5
CC1=C(CC(=O)O)c2cc(F)ccc2/C1=C\c1ccc([S+](C)[O-])cc1 (centres unmarked): 1.1
CN(C)CCCN1c2ccccc2Sc2ccc(Cl)cc21 [Chlorpromazine hydrochloride]: 1.5
COc1cc2nc(N(C)CCCNC(=O)C3CCCO3)nc(N)c2cc1OC (centres unmarked) [Alfuzosin hydrochloride]: 0.4

Below: the item to evaluate.
Record C=N[C@@H](C(=O)N[C@@H]1C(=O)N2[C@@H]1SC(C)(C)[C@@H]2C(=O)O)c1ccccc1 [Metampicillin sodium salt] . Reported fold induction at 50 µM: 1.1

====

# Tested on: E. coli
# Experiment: AK assay 384-well format, Prestwick library screening
# Format: cell-based, Escherichia coli
# Assay setup: Escherichia coli, 3 h; 50 μM final drug concentration; 384-well format; cutoff for positive-scoring molecules 3-fold increase; read-out: AK-based Prestwick Library Screening Results, E. coli (increase in extracellular AK activity)
Where a name gives a salt, the structure may show the parent alone.
Readout name: fold induction at 50 µM

Would you mind giving fold induction at 50 µM for every molecule in the list below?
1. CC(NC(C)(C)C)C(=O)c1cccc(Cl)c1 (centres unmarked) [Bupropion hydrochloride]
2. Nc1ccc(S(=O)(=O)Nc2nccs2)cc1

1. 0.5
2. 0.7

====

# Measured on: S. aureus DNA gyrase (Staphylococcus aureus, UniProt P0A0K8+P20831)
# Construct: purchased TopoGEN
# Sequence (P0A0K8 whole entry): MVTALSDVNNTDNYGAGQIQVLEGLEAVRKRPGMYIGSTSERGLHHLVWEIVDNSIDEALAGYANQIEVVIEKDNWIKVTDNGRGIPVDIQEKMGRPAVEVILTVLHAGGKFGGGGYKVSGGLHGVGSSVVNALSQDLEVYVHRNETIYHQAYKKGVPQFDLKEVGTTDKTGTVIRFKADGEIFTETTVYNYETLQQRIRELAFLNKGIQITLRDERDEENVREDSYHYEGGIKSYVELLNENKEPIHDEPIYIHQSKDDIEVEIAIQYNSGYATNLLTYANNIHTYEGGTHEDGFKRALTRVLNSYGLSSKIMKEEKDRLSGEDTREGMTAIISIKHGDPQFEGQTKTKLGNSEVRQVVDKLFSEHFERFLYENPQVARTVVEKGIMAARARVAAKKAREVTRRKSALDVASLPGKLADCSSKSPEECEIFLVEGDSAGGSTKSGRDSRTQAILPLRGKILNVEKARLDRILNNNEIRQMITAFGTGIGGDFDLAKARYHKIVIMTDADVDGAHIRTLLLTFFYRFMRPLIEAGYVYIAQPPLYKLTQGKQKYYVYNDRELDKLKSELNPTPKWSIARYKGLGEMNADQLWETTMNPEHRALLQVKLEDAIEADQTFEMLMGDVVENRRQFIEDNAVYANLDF
# Sequence (P20831 whole entry): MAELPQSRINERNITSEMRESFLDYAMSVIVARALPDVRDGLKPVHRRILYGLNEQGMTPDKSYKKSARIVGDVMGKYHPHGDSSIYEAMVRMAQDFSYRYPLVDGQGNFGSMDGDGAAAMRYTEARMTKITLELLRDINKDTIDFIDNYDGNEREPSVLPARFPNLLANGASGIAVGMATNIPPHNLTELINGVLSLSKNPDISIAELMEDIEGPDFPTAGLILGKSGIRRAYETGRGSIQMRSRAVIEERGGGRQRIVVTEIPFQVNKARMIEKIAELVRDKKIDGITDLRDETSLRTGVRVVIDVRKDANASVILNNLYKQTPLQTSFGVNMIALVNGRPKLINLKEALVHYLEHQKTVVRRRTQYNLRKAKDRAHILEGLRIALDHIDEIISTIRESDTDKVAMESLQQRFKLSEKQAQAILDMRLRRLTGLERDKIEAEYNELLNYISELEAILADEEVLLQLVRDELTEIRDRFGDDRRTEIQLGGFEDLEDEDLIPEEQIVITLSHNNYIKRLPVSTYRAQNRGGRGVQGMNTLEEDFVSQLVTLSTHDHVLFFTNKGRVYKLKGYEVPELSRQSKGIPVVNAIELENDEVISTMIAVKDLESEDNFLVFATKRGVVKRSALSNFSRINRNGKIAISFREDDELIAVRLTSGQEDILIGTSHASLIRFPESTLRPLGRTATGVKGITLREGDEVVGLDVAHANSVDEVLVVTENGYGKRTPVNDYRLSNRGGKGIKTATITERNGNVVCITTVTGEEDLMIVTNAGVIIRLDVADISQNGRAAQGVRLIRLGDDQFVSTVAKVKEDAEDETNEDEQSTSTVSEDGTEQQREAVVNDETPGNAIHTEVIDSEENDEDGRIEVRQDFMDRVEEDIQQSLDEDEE
# Experiment: S. aureus DNA gyrase supercoiling assay (TopoGEN)
# Assay type: biochemical
# Procedure: Reactions were incubated at 37° C. for 30 min and then stopped by the addition of 10% SDS, filtered through 0.025 μm Millipore membrane filters in a 10 mM Tris-HCl buffer (pH 8), and electrophoresed in a 1% agarose TAE gel. Gels were stained with 0.5 μg/ml ethidium bromide and images were analyzed using densitometry (Image J, NIH).
Readout name: IC50 (µM)
Give bare numbers, in µM.

Would you mind giving IC50 for every molecule in the list below?
1. CC(C)(C)c1ccc(CCCCN2CCC(C(O)(c3ccccc3)c3ccccc3)CC2)cc1 [Compound 10]
2. OC(CCCN1CCC(C(O)(c2ccccc2)c2ccccc2)CC1)c1ccc(Cl)cc1 (stereo not drawn) [Compound 4]
3. OC(c1ccccc1)(c1ccccc1)C1CCN(CCc2ccc(-c3ccccc3)cc2)CC1 [Compound 32]
4. CC(C)(C)c1ccc(CCCN2CCC(C(O)(c3ccccc3)c3ccccc3)CC2)cc1 [Compound 22]
5. OC(CCCN1CCC(C(O)(c2ccccc2)c2ccccc2)CC1)c1ccc(-c2ccccc2)cc1 (stereo not drawn) [Compound 25]
6. OC(c1ccccc1)(c1ccccc1)C1CCN(CCc2ccc(Cl)cc2)CC1 [Compound 44]

[205, 296, 179, 211, 27.1, 640]

Would you mind giving IC50 for every molecule in the list below?
1. Nc1ccc(CCN2CCC(C(O)(c3ccccc3)c3ccccc3)CC2)cc1 [Compound 34]
2. CC(C)(C)c1ccc(C(=O)CCN2CCC(C(O)(c3ccccc3)c3ccccc3)CC2)cc1 [Compound 21]

[241, 198]

Would you mind giving IC50 for every molecule in the list below?
1. CC(C)(C)c1ccc(CCN2CCC(C(O)(c3ccccc3)c3ccccc3)CC2)cc1 [Compound 23]
2. OC(c1ccccc1)(c1ccccc1)C1CCN(CCc2ccc(Br)cc2)CC1 [Compound 30]

[218, 548]

====

I'd be grateful if you could share measured fold induction at 50 µM for these entries.
# Test system: E. coli
# Experiment: AK assay 384-well format, Prestwick library screening
# Assay type: cell-based, Escherichia coli
# Assay setup: Escherichia coli, 3 h; 50 μM final drug concentration; planktonic; cutoff for positive 3-fold increase; read-out: AK-based Prestwick Library Screening Results, E. coli (fold increase in extracellular AK activity)
Counter-ions that a name gives are not always drawn.
Numbers only.

Guide cases for fold induction at 50 µM, answers given:
CCN(CC)CCOCCOC(=O)C1(c2ccccc2)CCCC1 [Carbetapentane citrate]: 1.4
COc1c(C)c2c(c(O)c1C/C=C(\C)CCC(=O)O)C(=O)OC2 [Mycophenolic acid]: 1.2
COc1ccc(CN2CCNCC2)c(OC)c1OC [Trimetazidine dihydrochloride]: 1.4
O=C1NCCN1c1ncc([N+](=O)[O-])s1 [Niridazole]: 13.2
CC1(C)O[C@@H]2C[C@H]3[C@@H]4C[C@H](F)C5=CC(=O)CC[C@]5(C)[C@H]4[C@@H](O)C[C@]3(C)[C@]2(C(=O)CO)O1 [Flurandrenolide]: 0.5

Below: the item to evaluate.
Record Fc1ccc(C(OCCN2CCN(CCCc3ccccc3)CC2)c2ccc(F)cc2)cc1 [GBR 12909 dihydrochloride] . Reported fold induction at 50 µM: 1.4
